protocol description: Cmax in Sprague-Dawley rat at 10 mg/kg, po
Type: ADME, organism-based
Set-up: dose 10 mg/kg, route oral
assay setup: in vivo
measurement name: Cmax (nM)
Provide the reading as a plain figure in nM.

| molecule | Cmax, nM |
| --- | --- |
| N#Cc1ccc(N2CCN(Cc3ccc(COc4cccc5c4CN([C@H]4CCC(=O)NC4=O)C5=O)cc3)CC2)c(F)c1 [MEZIGDOMIDE] | 3200 |

[in] Give the measured Cmax for N#Cc1ccc(N2CCN(Cc3ccc(COc4cccc5c4CN([C@@H]4CCC(=O)NC4=O)C5=O)cc3)CC2)c(F)c1
[out] 60
